Experiment: in vivo
Parameters: species or system male SD rats
Conditions: male, SD, iv, 1 mg/kg, rat, 1 mpk
Endpoint name: clearance (mL/min/kg)
Numeric only. Scale: mL/min/kg

Bench note: what clearance did "O=C1c2c(O)c(=O)ccn2N([C@H]2c3ccc(F)c(F)c3C[Se]c3cccnc32)[C@@H]2COCCN12" show?
178

----------
Test: in vivo
Parameters: species or system male beagle dogs
Conditions: male, iv, 1 mg/kg, beagle dog, 1 mpk
Endpoint name: half-life (h)
Numeric only. Scale: h

Bench note: what half-life did "O=C1c2c(O)c(=O)ccn2N([C@H]2c3ccc(F)c(F)c3C[Se]c3cccnc32)[C@@H]2COCCN12" show?
3.7
